Tested on: 3T3-L1
experimental_details: Cytotoxicity against mouse 3T3L1 cells at 40 ug/ml after 2 days by MTT assay
Assay type: cell-based
recorded_conditions: 3t3-l1, 48 h
measured_metric: Activity

COC(=O)CC[C@@H](C)[C@H]1CC(=O)[C@@]2(C)C3=C(C(=O)C[C@]12C)[C@@]1(C)CCC(=O)C(C)(C)[C@@H]1C[C@@H]3O [METHYL LUCIDENATE A]
Non-toxic
CCCCOC(=O)CC[C@@H](C)[C@H]1CC(=O)[C@@]2(C)C3=C(C(=O)C[C@]12C)[C@@]1(C)CCC(=O)C(C)(C)[C@@H]1C[C@@H]3O [BUTYL LUCIDENATE A]
Non-toxic
COC(=O)CC[C@@H](C)[C@H]1CC(=O)[C@@]2(C)C3=C(C(=O)C[C@]12C)[C@@]1(C)CCC(=O)C(C)(C)[C@@H]1CC3=O [METHYL LUCIDENATE F]
Non-toxic

###

Tested on: 3T3-L1
experimental_details: Inhibition of adipocytes differentiation in mouse 3T3L1 cells assessed as lipid accumulation at 40 ug/ml after 8 days by Oil red O staining relative to control
Assay type: functional
recorded_conditions: 3T3-L1, 192 h
For each entry below, report its inhibition at 40 µg/mL value.
Entry rule: numbers only, all in %.

Prompt: Specify inhibition at 40 µg/mL for CCCCOC(=O)CC[C@@H](C)[C@H]1CC(=O)[C@@]2(C)C3=C(C(=O)C[C@]12C)[C@@]1(C)CC[C@H](O)C(C)(C)[C@@H]1C[C@@H]3O [BUTYL LUCIDENATE N] and stop.
Response: 56

Prompt: Supply recorded inhibition at 40 µg/mL for CCCCOC(=O)C(C)CC(=O)C[C@@H](C)[C@H]1C[C@H](O)[C@@]2(C)C3=C(C(=O)C[C@]12C)[C@@]1(C)CCC(=O)C(C)(C)[C@@H]1C[C@@H]3O (stereo partly drawn) [BUTYL GANODERATE A] here.
Response: 22

Prompt: Item COC(=O)C(C)CC(=O)C[C@@H](C)[C@H]1CC(=O)[C@@]2(C)C3=C(C(=O)C[C@]12C)[C@@]1(C)CCC(=O)C(C)(C)[C@@H]1C[C@@H]3O (stereo partly drawn) [METHYL GANODERATE D] : provide inhibition at 40 µg/mL
Response: 22
